# Test system: dextran sodium sulfate (DSS)-induced IBD
# EXPERIMENTAL PROTOCOL: Acute prophylactic model of DSS-induced IBD
# Format: in vivo, mouse
# SETTINGS: oral 10 mg/kg/day for 10 days, prophylactic
READOUT: decrease of percent of mice with severe colon injury scores via histopathology

SMILES NOTATION	TESTED TARGET	RESULT
O=c1c(-c2ccc(-c3nnn[nH]3)cc2)c(C(F)(F)F)oc2cc(O)ccc12	dextran sodium sulfate (DSS)-induced IBD	17 % of vehicle control
O=C(O)c1ccc(-c2ccc3cc(O)ccc3c2)c(F)c1	dextran sodium sulfate (DSS)-induced IBD	26 % of vehicle control
O=C(O)c1ccc(-c2c(C(F)(F)F)oc3cc(O)ccc3c2=O)c(F)c1	dextran sodium sulfate (DSS)-induced IBD	15 % of vehicle control
O=C(O)c1ccc(-c2ccc3cc(O)ccc3n2)c(Cl)c1	dextran sodium sulfate (DSS)-induced IBD	26 % of vehicle control

---

# TESTED TARGET: S-nitrosoglutathione reductase (GSNOR) (Homo sapiens)
# Construct: made in house; host or cells: E. coli
# Sequence (P11766 whole entry): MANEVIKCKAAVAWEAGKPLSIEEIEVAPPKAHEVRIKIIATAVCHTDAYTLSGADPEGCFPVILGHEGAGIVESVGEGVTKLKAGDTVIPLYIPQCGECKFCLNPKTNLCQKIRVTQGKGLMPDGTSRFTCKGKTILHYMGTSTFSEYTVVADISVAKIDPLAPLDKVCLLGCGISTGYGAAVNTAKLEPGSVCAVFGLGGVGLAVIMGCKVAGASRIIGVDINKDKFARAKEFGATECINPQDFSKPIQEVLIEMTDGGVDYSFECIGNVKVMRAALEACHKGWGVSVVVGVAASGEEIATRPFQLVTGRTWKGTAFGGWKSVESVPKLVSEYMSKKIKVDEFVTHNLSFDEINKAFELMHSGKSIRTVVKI
# EXPERIMENTAL PROTOCOL: GSNOR assay (inhibition of GSNOR activity, NADH absorbance at 340 nm)
# Assay type: biochemical
# SETTINGS: Table 7; GSNOR inhibition, IC50 range class a/b/c; read-out: IC50
READOUT: IC50

MOLECULE	TESTED TARGET	RESULT
CC(C)CCn1c(-c2ccc(O)cc2)ccc1-c1ccc(C(=O)O)cc1 [VII-28]	S-nitrosoglutathione reductase (GSNOR) (Homo sapiens)	< 100 nM
O=C(O)c1cccc(-c2csc(-c3ccc(O)cc3)n2)c1 [VII-18]	S-nitrosoglutathione reductase (GSNOR) (Homo sapiens)	1000 to 10000 nM
O=C(O)c1ccc(-c2csc(-c3ccc(O)cc3)n2)cc1 [VII-2]	S-nitrosoglutathione reductase (GSNOR) (Homo sapiens)	100 to 1000 nM
CC(C)CCn1c(-c2ccc(O)cc2)ccc1-c1ccc(C(=O)O)s1 [VII-27]	S-nitrosoglutathione reductase (GSNOR) (Homo sapiens)	< 100 nM
CCCn1c(-c2ccc(O)cc2)ccc1-c1ccc(C(=O)O)cc1 [VII-37]	S-nitrosoglutathione reductase (GSNOR) (Homo sapiens)	< 100 nM

---

Below, each entry is listed with its recorded IC50.
# TESTED TARGET: S-nitrosoglutathione reductase (GSNOR) (Homo sapiens)
# Construct: made in house; host or cells: E. coli
# EXPERIMENTAL PROTOCOL: GSNOR assay (inhibition of GSNOR activity, NADH absorbance at 340 nm)
# Type: biochemical
# SETTINGS: GSNOR inhibitor activity, Tables 1-6; read-out: IC50 range

MOLECULE	IC50
O=C(O)[C@H]1CC[C@@H](c2nc3ccc(O)cc3cc2C(F)(F)F)CC1	1000 to 10000 nM
O=C(O)c1ccc(COc2cc(F)c(O)cc2F)c(F)c1	100 to 1000 nM
O=C(O)[C@H]1CC[C@H](c2nc3ccc(O)cc3cc2C(F)(F)F)CC1	< 100 nM
O=C(O)c1ccc(-c2ccc3cc(O)ccc3c2)cc1O	< 100 nM
O=C(O)C1CC=C(c2nc3ccc(O)cc3nc2C(F)(F)F)CC1 (stereo not drawn)	< 100 nM
Cc1cc(C(=O)O)ccc1-c1ccc2c(F)c(O)ccc2n1	< 100 nM
O=C(O)c1ccc(-c2cc(F)c3cc(O)ccc3n2)cc1	< 100 nM
O=C(O)c1ccc(Oc2coc3cc(O)ccc3c2=O)cc1	1000 to 10000 nM
Cc1cc2cc(O)ccc2nc1-c1ccc(C(=O)O)cc1	< 100 nM
O=C(O)c1ccc(-c2ccc3c(F)c(O)ccc3n2)c(Cl)c1	< 100 nM
O=C(O)c1ccc(-c2ccc3cc(O)ccc3n2)c(O)c1	< 100 nM
O=C(O)c1ccc(-c2cc(F)c3c(F)c(O)ccc3c2)c(F)c1	< 100 nM
O=C(O)C1CCC(c2ccc3cc(O)ccc3n2)CC1 (stereo not drawn)	100 to 1000 nM
Cc1cc2cc(O)ccc2nc1-c1ccc(-c2nnn[nH]2)cc1	< 100 nM
CN(C)c1cc(C(=O)O)ccc1-c1ccc2cc(O)ccc2n1	< 100 nM
O=C(O)c1ccc(-c2c(C(F)(F)F)oc3cc(O)ccc3c2=O)c(Cl)c1	< 100 nM
O=c1c(C2CCC(c3nn[nH]n3)CC2)c(C(F)(F)F)oc2cc(O)ccc12 (stereo not drawn)	< 100 nM
O=C(O)c1ccc(-c2ccc3cc(O)ccc3n2)c(Br)c1	< 100 nM
O=C(O)c1ccc(Oc2c(C(F)(F)F)oc3cc(O)ccc3c2=O)cc1O	100 to 1000 nM
CC(F)(F)c1oc2cc(O)ccc2c(=O)c1-c1ccc(C(=O)O)cc1	< 100 nM
O=C(O)c1cnc(-c2ccc3cc(O)ccc3c2)nc1	100 to 1000 nM
Cc1oc2cc(O)ccc2c(=O)c1-c1ccc(-c2nnn[nH]2)cc1	< 100 nM
O=C(O)c1ccc(C[S+]([O-])c2ccc(O)cc2)c(F)c1 (stereo not drawn)	100 to 1000 nM
CCOc1cc(-c2c(C(F)(F)F)oc3cc(O)ccc3c2=O)cc([N+](=O)[O-])c1O	< 100 nM
O=C(O)c1ccc(CC(=O)c2ccc(O)cc2F)c(F)c1	< 100 nM
O=C(O)c1ccc(-c2ccc3c(F)c(O)ccc3c2)c(Cl)c1	< 100 nM
O=C(O)c1ccc(-c2cc(F)c3cc(O)ccc3n2)c(Cl)c1	< 100 nM
O=C(O)c1ccc(/C=C/c2ccc(O)cc2O)cc1 [VI-13, (E)-4-(2,4-dihydroxystyryl)benzoic acid]	1000 to 10000 nM
O=C(O)c1ccc(-c2cc(F)c3cc(O)ccc3n2)c(F)c1	< 100 nM
O=c1[nH]c(-c2ccc(-c3c(C(F)(F)F)oc4cc(O)ccc4c3=O)c(F)c2)no1	< 100 nM
